The measured values listed here are drawn from paper PMC5340193.

Target: Plk3 PBD (Homo sapiens, UniProt Q9H4B4)
Sequence (Q9H4B4 335-646 limits assumed): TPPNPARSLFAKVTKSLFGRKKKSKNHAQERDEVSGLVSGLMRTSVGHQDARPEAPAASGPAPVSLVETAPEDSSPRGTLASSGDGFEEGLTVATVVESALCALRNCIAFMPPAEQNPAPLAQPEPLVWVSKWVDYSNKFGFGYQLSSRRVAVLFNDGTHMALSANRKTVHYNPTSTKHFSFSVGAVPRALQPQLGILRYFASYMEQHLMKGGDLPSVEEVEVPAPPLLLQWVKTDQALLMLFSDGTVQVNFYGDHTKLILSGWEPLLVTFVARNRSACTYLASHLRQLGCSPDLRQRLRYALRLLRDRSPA
Starred links: 1 amine or outer side, 2 acyl side, 3 side chain; linkers in the order of their positions; H or OH if unused. Non-standard residues stand in square brackets, D forms with d. Residues, ends and D or L forms follow the SMILES beside them. His(π-(CH2)8Ph) = N[C@@H](Cc1cncn1CCCCCCCCc1ccccc1)C(=O)O; X2 = O=C([C@@H](N[*:1])[C@@H](CCc1ccccc1)CP(=O)(O)O)[*:2]; X1 = CC(C)[C@@H](CP(=O)(O)O)[C@H](N[*:1])C(=O)[*:2]; Abu(4-PO3H2) = N[C@@H](CCP(=O)(O)O)C(=O)O
READOUT_KIND: pIC50
Hey, just a heads up that pIC50 is the negative log base 10 of the concentration in molar.

Requested read-out pIC50, target or system Plk3 PBD (Homo sapiens, UniProt Q9H4B4), entry CC(=O)N1CCC[C@H]1C(=O)N[C@@H](CC(C)C)C(=O)N[C@@H](Cc1cncn1CCCCCCCCc1ccccc1)C(=O)N[C@@H](CO)C(=O)N[C@@H](CCP(=O)(O)O)C(N)=O [compound 19] (Ac-PL[His(π-(CH2)8Ph)]S[Abu(4-PO3H2)]-NH2; N-terminus and C-terminus assumed) 5.06

What do you have for CC(=O)N1CCC[C@H]1C(=O)N[C@@H](CC(C)C)C(=O)N[C@@H](Cc1cncn1CCCCCCCCc1ccccc1)C(=O)N[C@@H](CO)C(=O)N[C@H](C(N)=O)[C@@H](CCc1ccccc1)CP(=O)(O)O [compound 23] (Ac-PL[His(π-(CH2)8Ph)]S[X2]-NH2; N-terminus and C-terminus assumed) ? 5.92

For CC(=O)N1CCC[C@H]1C(=O)N[C@@H](CC(C)C)C(=O)N[C@@H](Cc1cncn1CCCCCCCCc1ccccc1)C(=O)N[C@@H](CO)C(=O)N[C@H](C(N)=O)[C@H](CP(=O)(O)O)C(C)C [compound 21] (Ac-PL[His(π-(CH2)8Ph)]S[X1]-NH2; N-terminus and C-terminus assumed) then? 5.96

Now consider CC(=O)N1CCC[C@H]1C(=O)N[C@@H](CC(C)C)C(=O)N[C@@H](Cc1cncn1CCCCCCCCc1ccccc1)C(=O)N[C@@H](CO)C(=O)N[C@H](C(N)=O)[C@@H](C)CP(=O)(O)O [compound 7, reference compound] and answer again. 5.36
